# system-under-test: Sulfotransferase 2A1 (Homo sapiens)
# Sequence (Q06520 whole entry): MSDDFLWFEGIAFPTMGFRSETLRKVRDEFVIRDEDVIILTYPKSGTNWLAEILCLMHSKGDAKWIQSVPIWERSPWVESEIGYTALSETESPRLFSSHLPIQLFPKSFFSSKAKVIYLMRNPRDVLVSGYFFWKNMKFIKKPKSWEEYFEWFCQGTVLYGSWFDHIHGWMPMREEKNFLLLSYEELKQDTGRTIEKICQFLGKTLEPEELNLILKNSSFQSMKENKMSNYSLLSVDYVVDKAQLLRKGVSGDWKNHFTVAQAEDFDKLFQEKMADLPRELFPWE
value-type: Ki
Give the number first and the unit second.

Inquiry: # return recorded Ki for entry Clc1ccc2c(c1)C(N1CCNCC1)=Nc1ccccc1O2
Reply text: 125 µM
